experiment: activity coefficient (dimensionless); of the first substance listed, at infinite dilution; xn = mol fraction of the nth substance listed; details: 368.15 K; 101 kPa; Liquid; Chromatography; x1 = 0
Note to self: activity coefficient under 20 means label 1, ties and anything higher get label 0.

Solved entries:
>>> class("CCCCCCC [heptane] + C[N+]1(CCCO)CCOCC1.O=S(=O)([N-]S(=O)(=O)C(F)(F)F)C(F)(F)F")
"label 0"
>>> class("C=CCCCCCC [oct-1-ene] + C[N+]1(CCCO)CCOCC1.O=S(=O)([N-]S(=O)(=O)C(F)(F)F)C(F)(F)F")
"label 0"
>>> class("CO [methanol] + C[N+]1(CCCO)CCOCC1.O=S(=O)([N-]S(=O)(=O)C(F)(F)F)C(F)(F)F")
"label 1"
>>> class("CCC(=O)CC [pentan-3-one] + C[N+]1(CCCO)CCOCC1.O=S(=O)([N-]S(=O)(=O)C(F)(F)F)C(F)(F)F")
"label 1"

Field: below-cutoff. Rule: recorded activity coefficient strictly less than 20. Subject: C1CCCCCCC1 [cyclooctane] + C[N+]1(CCCO)CCOCC1.O=S(=O)([N-]S(=O)(=O)C(F)(F)F)C(F)(F)F label 0

activity coefficient under 20? Item: CC(C)OC(C)C [diisopropyl ether] + C[N+]1(CCCO)CCOCC1.O=S(=O)([N-]S(=O)(=O)C(F)(F)F)C(F)(F)F label 1

Is it true that activity coefficient reported for CCCO [propan-1-ol] + C[N+]1(CCCO)CCOCC1.O=S(=O)([N-]S(=O)(=O)C(F)(F)F)C(F)(F)F is less than 20? label 1

* * *

assay: activity coefficient (dimensionless); of the first substance listed, at infinite dilution; xn = mol fraction of the nth substance listed; details: 318.15 K; 101 kPa; Liquid; Chromatography; x1 = 0
Readout name: activity coefficient

>>> val("CCOC(C)=O [ethyl acetate] + C[N+]1(CCCO)CCOCC1.O=S(=O)([N-]S(=O)(=O)C(F)(F)F)C(F)(F)F")
1.5
>>> val("CCOCC [diethyl ether] + C[N+]1(CCCO)CCOCC1.O=S(=O)([N-]S(=O)(=O)C(F)(F)F)C(F)(F)F")
4.94

Hi! Can you tell me activity coefficient for each of these compounds?
1. C1CCOC1 [tetrahydrofuran] + C[N+]1(CCCO)CCOCC1.O=S(=O)([N-]S(=O)(=O)C(F)(F)F)C(F)(F)F
2. C=COC(C)=O [vinyl acetate] + C[N+]1(CCCO)CCOCC1.O=S(=O)([N-]S(=O)(=O)C(F)(F)F)C(F)(F)F
3. C#CCCC [1-pentyne] + C[N+]1(CCCO)CCOCC1.O=S(=O)([N-]S(=O)(=O)C(F)(F)F)C(F)(F)F
4. C=CCCCCCCCC [1-decene] + C[N+]1(CCCO)CCOCC1.O=S(=O)([N-]S(=O)(=O)C(F)(F)F)C(F)(F)F
5. C=CCCC [1-pentene] + C[N+]1(CCCO)CCOCC1.O=S(=O)([N-]S(=O)(=O)C(F)(F)F)C(F)(F)F
6. C#CCCCC [1-hexyne] + C[N+]1(CCCO)CCOCC1.O=S(=O)([N-]S(=O)(=O)C(F)(F)F)C(F)(F)F

[0.968, 1.87, 7.77, 307, 38.3, 12.5]

List activity coefficient for every entry below, keeping the order given.
1. C1CCCC1 [cyclopentane] + C[N+]1(CCCO)CCOCC1.O=S(=O)([N-]S(=O)(=O)C(F)(F)F)C(F)(F)F
2. CCO [ethanol] + C[N+]1(CCCO)CCOCC1.O=S(=O)([N-]S(=O)(=O)C(F)(F)F)C(F)(F)F
3. CC(C)CO [2-methyl-1-propanol] + C[N+]1(CCCO)CCOCC1.O=S(=O)([N-]S(=O)(=O)C(F)(F)F)C(F)(F)F

1: 41; 2: 1.4; 3: 3.25

Hey, quick one: what's activity coefficient for each of these?
1. CCOC(C)(C)C [2-ethoxy-2-methylpropane] + C[N+]1(CCCO)CCOCC1.O=S(=O)([N-]S(=O)(=O)C(F)(F)F)C(F)(F)F
2. CC(C)(C)O [2-methylpropan-2-ol] + C[N+]1(CCCO)CCOCC1.O=S(=O)([N-]S(=O)(=O)C(F)(F)F)C(F)(F)F
3. Cc1ccccc1C [1,2-dimethylbenzene] + C[N+]1(CCCO)CCOCC1.O=S(=O)([N-]S(=O)(=O)C(F)(F)F)C(F)(F)F

1. 16.1
2. 2.09
3. 5.73

* * *

experiment: activity coefficient (dimensionless); of the first substance listed, at infinite dilution; xn = mol fraction of the nth substance listed; conditions: 328.15 K; 101 kPa; Liquid; Chromatography; x1 = 0
Readout name: activity coefficient
Answers are plain numbers.

# batch: return activity coefficient for each of the 7 molecules below
1. CCOCC [diethyl ether] + C[N+]1(CCCO)CCOCC1.O=S(=O)([N-]S(=O)(=O)C(F)(F)F)C(F)(F)F
2. CCCC(C)=O [pentan-2-one] + C[N+]1(CCCO)CCOCC1.O=S(=O)([N-]S(=O)(=O)C(F)(F)F)C(F)(F)F
3. CCCOCCC [dipropyl ether] + C[N+]1(CCCO)CCOCC1.O=S(=O)([N-]S(=O)(=O)C(F)(F)F)C(F)(F)F
4. CCCCCCC [heptane] + C[N+]1(CCCO)CCOCC1.O=S(=O)([N-]S(=O)(=O)C(F)(F)F)C(F)(F)F
5. C=CCCCCCCCC [1-decene] + C[N+]1(CCCO)CCOCC1.O=S(=O)([N-]S(=O)(=O)C(F)(F)F)C(F)(F)F
6. CCC(C)(C)OC [2-methoxy-2-methylbutane] + C[N+]1(CCCO)CCOCC1.O=S(=O)([N-]S(=O)(=O)C(F)(F)F)C(F)(F)F
7. Cc1cccc(C)c1 [1,3-dimethylbenzene] + C[N+]1(CCCO)CCOCC1.O=S(=O)([N-]S(=O)(=O)C(F)(F)F)C(F)(F)F

1: 5; 2: 1.29; 3: 19.5; 4: 192; 5: 269; 6: 8.75; 7: 6.55

* * *

Exercise: for every item that follows, state its recorded activity coefficient.
assay: activity coefficient (dimensionless); of the first substance listed, at infinite dilution; xn = mol fraction of the nth substance listed; conditions: 338.15 K; 101 kPa; Liquid; Chromatography; x1 = 0

// known answers, use as guide
>>> val("C1CCCCCCC1 [cyclooctane] + C[N+]1(CCCO)CCOCC1.O=S(=O)([N-]S(=O)(=O)C(F)(F)F)C(F)(F)F")
83.6
>>> val("c1ccsc1 [thiophene] + C[N+]1(CCCO)CCOCC1.O=S(=O)([N-]S(=O)(=O)C(F)(F)F)C(F)(F)F")
1.95
>>> val("CCCC(C)=O [pentan-2-one] + C[N+]1(CCCO)CCOCC1.O=S(=O)([N-]S(=O)(=O)C(F)(F)F)C(F)(F)F")
1.34
>>> val("CCCOCCC [dipropyl ether] + C[N+]1(CCCO)CCOCC1.O=S(=O)([N-]S(=O)(=O)C(F)(F)F)C(F)(F)F")
18.9
>>> val("C=COC(C)=O [vinyl acetate] + C[N+]1(CCCO)CCOCC1.O=S(=O)([N-]S(=O)(=O)C(F)(F)F)C(F)(F)F")
1.94
>>> val("C=CCCCC [hex-1-ene] + C[N+]1(CCCO)CCOCC1.O=S(=O)([N-]S(=O)(=O)C(F)(F)F)C(F)(F)F")
45.2

Could you share which activity coefficient value was measured for C=Cc1ccccc1 [styrene] + C[N+]1(CCCO)CCOCC1.O=S(=O)([N-]S(=O)(=O)C(F)(F)F)C(F)(F)F ? 3.58

* * *

test: activity coefficient (dimensionless); of the first substance listed, at infinite dilution; xn = mol fraction of the nth substance listed; conditions: 318.15 K; 101 kPa; Liquid; Chromatography; x1 = 0
Classify on activity coefficient using c1 (below 3), c2 (3 to below 20), c3 (20 or more)

Examples from the recorded data:
>>> class("CCCCCCC [heptane] + C[N+]1(CCCO)CCOCC1.O=S(=O)([N-]S(=O)(=O)C(F)(F)F)C(F)(F)F")
"c3"
>>> class("c1ccncc1 [pyridine] + C[N+]1(CCCO)CCOCC1.O=S(=O)([N-]S(=O)(=O)C(F)(F)F)C(F)(F)F")
"c1"
>>> class("C#CCCCCCC [1-octyne] + C[N+]1(CCCO)CCOCC1.O=S(=O)([N-]S(=O)(=O)C(F)(F)F)C(F)(F)F")
"c3"
>>> class("c1ccsc1 [thiophene] + C[N+]1(CCCO)CCOCC1.O=S(=O)([N-]S(=O)(=O)C(F)(F)F)C(F)(F)F")
"c1"

Looking at C=C(C)c1ccccc1 [(1-methylethenyl)benzene] + C[N+]1(CCCO)CCOCC1.O=S(=O)([N-]S(=O)(=O)C(F)(F)F)C(F)(F)F , which class would you pick? c2

Looking at CC(C)OC(C)C [diisopropyl ether] + C[N+]1(CCCO)CCOCC1.O=S(=O)([N-]S(=O)(=O)C(F)(F)F)C(F)(F)F , which class would you pick? c2

Category of CCC(C)O (centres undefined) [butan-2-ol] + C[N+]1(CCCO)CCOCC1.O=S(=O)([N-]S(=O)(=O)C(F)(F)F)C(F)(F)F , please. c1

Which band does CCC(C)(C)OC [2-methoxy-2-methylbutane] + C[N+]1(CCCO)CCOCC1.O=S(=O)([N-]S(=O)(=O)C(F)(F)F)C(F)(F)F fall in? c2

// bin(item) where item = C1CCCCCCC1 [cyclooctane] + C[N+]1(CCCO)CCOCC1.O=S(=O)([N-]S(=O)(=O)C(F)(F)F)C(F)(F)F c3

Which bin should I file CC(C)=O [acetone] + C[N+]1(CCCO)CCOCC1.O=S(=O)([N-]S(=O)(=O)C(F)(F)F)C(F)(F)F under? c1

Category lookup for the molecule CCCO [propan-1-ol] + C[N+]1(CCCO)CCOCC1.O=S(=O)([N-]S(=O)(=O)C(F)(F)F)C(F)(F)F c1

Kindly state the category for this molecule: C=Cc1ccccc1 [styrene] + C[N+]1(CCCO)CCOCC1.O=S(=O)([N-]S(=O)(=O)C(F)(F)F)C(F)(F)F c2

Class for CC(C)CC(C)(C)C [2,2,4-trimethylpentane] + C[N+]1(CCCO)CCOCC1.O=S(=O)([N-]S(=O)(=O)C(F)(F)F)C(F)(F)F ? c3
